target entity: Pro-neuregulin-1, membrane-bound isoform (Homo sapiens) (UniProt Q02297)
Sequence (Q02297 whole entry, looked up, canonical isoform): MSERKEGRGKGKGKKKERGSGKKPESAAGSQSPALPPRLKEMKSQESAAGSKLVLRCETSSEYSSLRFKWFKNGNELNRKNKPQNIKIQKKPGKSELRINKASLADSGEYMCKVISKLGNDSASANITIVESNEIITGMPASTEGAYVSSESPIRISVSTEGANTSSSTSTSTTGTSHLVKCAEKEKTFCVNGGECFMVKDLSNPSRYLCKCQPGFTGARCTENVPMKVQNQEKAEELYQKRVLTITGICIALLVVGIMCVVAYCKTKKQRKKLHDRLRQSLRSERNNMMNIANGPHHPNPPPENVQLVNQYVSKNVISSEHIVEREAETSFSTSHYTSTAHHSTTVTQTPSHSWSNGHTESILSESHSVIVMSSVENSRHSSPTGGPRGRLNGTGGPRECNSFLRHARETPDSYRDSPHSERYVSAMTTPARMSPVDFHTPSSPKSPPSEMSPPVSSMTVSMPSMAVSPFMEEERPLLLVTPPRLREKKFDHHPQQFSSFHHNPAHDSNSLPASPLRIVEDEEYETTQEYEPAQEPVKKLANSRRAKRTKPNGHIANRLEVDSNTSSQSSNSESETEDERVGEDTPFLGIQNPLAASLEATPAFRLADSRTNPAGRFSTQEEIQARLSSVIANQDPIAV
test summary: NRG1 binders on small-molecule microarrays, primary screen, psychiatric disease protein project, biochemical, small-molecule microarray, fluorescence 635/667 (AID 1075);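 further: score combines 667 nm spot fluorescence with signal to noise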
settings: NRG1 binding, 635 nm fluorescence, higher = more signal
Reported composite z-score values for a set of molecules
Lab note: record the figure alone, no unit after it.

molecule | composite z-score
COc1ccc([Si](C)(C)[C@@H]2[C@@H](CC(=O)N3Cc4ccccc4C[C@H]3CO)O[C@]3(C(=O)N(C)c4ccccc43)[C@H]2C)cc1 | 0.969
C[N+](C)(C)CCCCCCNC(=O)[C@H]1C[C@H]2C(=O)N[C@@H](Cc3ccccc3)C(=O)N2[C@H]1c1ccc(O)cc1 | 0.736
O=C1O[C@@H](c2ccccc2)[C@@H](c2ccccc2)N2[C@@H](c3ccccc3OCCO)[C@]3(C(=O)Nc4ccc(C#CCCO)cc43)[C@@H](C(=O)N3CCCCCCC3)[C@H]12 | 2.86
COC(=O)c1ccc([C@H](NC(=O)c2ccco2)[C@]2(C)C[C@H]2C2CCCCC2)cc1 | 1.12
O=C(N1CCCCC1)[C@@]1(CCS(=O)(=O)c2ccccc2)COC(c2ccc(OCCCO)cc2)=N1 | 1.06
CN(C)C(=O)[C@]1(CCS(=O)(=O)c2ccccc2)N=C(c2ccc(OCCCO)cc2)O[C@@H]1c1ccccc1N=[N+]=[N-] | 1.27
NCCCCCCNC(=O)[C@@H]1C[C@@H]2C(=O)N[C@@H](CCCCN)C(=O)N2[C@@H]1c1cccc(OCCO)c1 | 2.53

Now, please, on to the next molecule.
Input: Return composite z-score measured with Pro-neuregulin-1, membrane-bound isoform (Homo sapiens) (UniProt Q02297) given this molecule: COC(=O)C1=CC(CCCO)=CC(C2CC2)N(C)C=C1C(=O)OC (stereo not drawn)
Output: 2.06
